// provenance: patent US20250171420A1

Experimental system: CK1α (Homo sapiens)
Construct: HEK293 clonal lines with CRISPR KI HiBiT tag on CSNK1A1
Assay summary: CK1α NanoBit Assay (HiBiT-tagged CSNK1A1, HEK293 clonal lines)
Format: cell-based
Particulars: HEK293 HiBiT-CSNK1A1/LgBiT cells, 24 h incubation
Description: HEK293 clonal lines with CRISPR KI HiBiT tag on CSNK1A1 and stably expressing LgBiT protein were obtained from Promega (Madison, WI). […] Cells were incubated at 37° C., 5% CO2 for 24 hours and then signal was read on a Pherastar FSX using “LUM plus” optic module. Data analysis was performed in Scinamic (Scinamic, Cambridge, MA). […]
List of DC50 values.

For orientation, consider the following solved cases.
1. O=C1CCC(N2Cc3cc(NC(=O)N4CCC(C5CC5)C4)ccc3C2=O)C(=O)N1 (stereo not shown)
< 0.1 µM
2. O=C1CCC(N2Cc3cc(NC(=O)N4CCCc5ccc(C(F)(F)F)cc54)ccc3C2=O)C(=O)N1 (stereo not shown)
< 0.1 µM

**Query** Which measured DC50 value corresponds to CC1CN(C(=O)Nc2ccc3c(c2)CN(C2CCC(=O)NC2=O)C3=O)Cc2ccccc21 (stereo not shown) ?
**Result** < 0.1 µM

**Query** Next record, please: COC[C@H]1CN(C(=O)Nc2ccc3c(c2)CN(C2CCC(=O)NC2=O)C3=O)c2ccccc21 (stereo partly shown)
**Result** < 0.1 µM

**Query** Please give the result for CC1(c2ccccc2)CCCN(C(=O)Nc2ccc3c(c2)CN(C2CCC(=O)NC2=O)C3=O)C1 (stereo not shown) too.
**Result** 0.1 to 1 µM

**Query** Then this molecule: CN1CCN(c2ccc3c(c2)CCN3C(=O)Nc2ccc3c(c2)CN(C2CCC(=O)NC2=O)C3=O)CC1 (stereo not shown)
**Result** 0.1 to 1 µM

**Query** And for Cn1ccc(C2CCCN(C(=O)Nc3ccc4c(c3)CN(C3CCC(=O)NC3=O)C4=O)C2)n1 (stereo not shown) ?
**Result** 0.1 to 1 µM

**Query** Thanks! And O=C1CCC(N2Cc3cc(NC(=O)N4CCc5cccc(Cl)c54)ccc3C2=O)C(=O)N1 (stereo not shown) ?
**Result** < 0.1 µM

**Query** Same lookup for O=C1CCC(N2Cc3cc(NC(=O)N4CCCc5cccc(F)c54)ccc3C2=O)C(=O)N1 (stereo not shown) , please.
**Result** 0.1 to 1 µM

**Query** And for CC1CCCN(C(=O)Nc2ccc3c(c2)CN(C2CCC(=O)NC2=O)C3=O)C1 (stereo not shown) ?
**Result** 0.1 to 1 µM

**Query** One more molecule: Cc1cc(C)c2c(n1)CN(C(=O)Nc1ccc3c(c1)CN(C1CCC(=O)NC1=O)C3=O)C2 (stereo not shown)
**Result** < 0.1 µM

**Query** Another molecule to check: O=C1CCC(N2Cc3cc(NC(=O)N4CCc5ccc(Cl)cc54)ccc3C2=O)C(=O)N1 (stereo not shown)
**Result** < 0.1 µM

**Query** Again, but for N#Cc1cccc2c1N(C(=O)Nc1ccc3c(c1)CN(C1CCC(=O)NC1=O)C3=O)CC2 (stereo not shown)
**Result** > 1 µM

**Query** How about this molecule: O=C1CCC(N2Cc3cc(NC(=O)N4CCN(c5cnccn5)CC4)ccc3C2=O)C(=O)N1 (stereo not shown)
**Result** > 1 µM

**Query** Queued: CC1(C)Cc2ccccc2N(C(=O)Nc2ccc3c(c2)CN(C2CCC(=O)NC2=O)C3=O)C1 (stereo not shown)
**Result** < 0.1 µM

**Query** Ok, now N#Cc1cccc2c1CCN2C(=O)Nc1ccc2c(c1)CN(C1CCC(=O)NC1=O)C2=O (stereo not shown)
**Result** < 0.1 µM

====

Experimental system: CK1α (Homo sapiens)
Construct: HEK293 clonal lines with CRISPR KI HiBiT tag on CSNK1A1
Assay summary: CK1α NanoBit Assay (HiBiT-tagged CSNK1A1, HEK293 clonal lines)
Assay type: cell-based
Particulars: HEK293 HiBiT-CSNK1A1/LgBiT cells, 24 h incubation
Measured endpoint: DC50

Recorded DC50, per entry:
1) C[C@@H]1Cc2ccc(F)cc2N1C(=O)Nc1ccc2c(c1)CN(C1CCC(=O)NC1=O)C2=O (stereo partly shown)
< 0.1 µM
2) O=C1CCC(N2Cc3cc(NC(=O)N4CCc5cc(C(F)(F)F)ncc54)ccc3C2=O)C(=O)N1 (stereo not shown)
< 0.1 µM

# next molecule below
**Query** # query: DC50 of entry NC[C@@H]1Cc2ccccc2N1C(=O)Nc1ccc2c(c1)CN(C1CCC(=O)NC1=O)C2=O (stereo partly shown)
**Result** 0.1 to 1 µM

====

Experimental system: CK1α (Homo sapiens, UniProt P48729)
Construct: HEK293 clonal lines with CRISPR KI HiBiT tag on CSNK1A1
Sequence (P48729 whole entry): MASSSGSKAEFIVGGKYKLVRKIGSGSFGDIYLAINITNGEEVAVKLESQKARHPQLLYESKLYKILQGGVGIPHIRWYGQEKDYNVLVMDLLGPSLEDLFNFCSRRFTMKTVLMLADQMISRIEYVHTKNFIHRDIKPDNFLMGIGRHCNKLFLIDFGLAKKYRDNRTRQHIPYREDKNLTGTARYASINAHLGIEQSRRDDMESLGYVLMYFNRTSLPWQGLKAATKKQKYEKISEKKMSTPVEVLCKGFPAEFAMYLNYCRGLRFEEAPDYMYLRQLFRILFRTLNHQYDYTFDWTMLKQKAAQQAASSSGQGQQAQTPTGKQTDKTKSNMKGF
Sequence (Q96SW2 whole entry, further chain): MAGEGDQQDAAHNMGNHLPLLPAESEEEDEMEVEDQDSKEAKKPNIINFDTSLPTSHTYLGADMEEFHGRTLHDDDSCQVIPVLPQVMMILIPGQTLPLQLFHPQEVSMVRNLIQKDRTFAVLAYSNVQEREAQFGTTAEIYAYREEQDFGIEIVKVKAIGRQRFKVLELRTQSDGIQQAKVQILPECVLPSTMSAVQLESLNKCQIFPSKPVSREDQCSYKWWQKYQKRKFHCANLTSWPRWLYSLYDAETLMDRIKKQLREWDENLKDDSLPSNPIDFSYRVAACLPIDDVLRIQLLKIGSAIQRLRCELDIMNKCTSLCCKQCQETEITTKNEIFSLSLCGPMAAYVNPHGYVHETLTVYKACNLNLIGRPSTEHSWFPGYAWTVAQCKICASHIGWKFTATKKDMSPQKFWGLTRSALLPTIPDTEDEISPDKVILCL
Sequence (Q16531 2-1140 partner limits assumed): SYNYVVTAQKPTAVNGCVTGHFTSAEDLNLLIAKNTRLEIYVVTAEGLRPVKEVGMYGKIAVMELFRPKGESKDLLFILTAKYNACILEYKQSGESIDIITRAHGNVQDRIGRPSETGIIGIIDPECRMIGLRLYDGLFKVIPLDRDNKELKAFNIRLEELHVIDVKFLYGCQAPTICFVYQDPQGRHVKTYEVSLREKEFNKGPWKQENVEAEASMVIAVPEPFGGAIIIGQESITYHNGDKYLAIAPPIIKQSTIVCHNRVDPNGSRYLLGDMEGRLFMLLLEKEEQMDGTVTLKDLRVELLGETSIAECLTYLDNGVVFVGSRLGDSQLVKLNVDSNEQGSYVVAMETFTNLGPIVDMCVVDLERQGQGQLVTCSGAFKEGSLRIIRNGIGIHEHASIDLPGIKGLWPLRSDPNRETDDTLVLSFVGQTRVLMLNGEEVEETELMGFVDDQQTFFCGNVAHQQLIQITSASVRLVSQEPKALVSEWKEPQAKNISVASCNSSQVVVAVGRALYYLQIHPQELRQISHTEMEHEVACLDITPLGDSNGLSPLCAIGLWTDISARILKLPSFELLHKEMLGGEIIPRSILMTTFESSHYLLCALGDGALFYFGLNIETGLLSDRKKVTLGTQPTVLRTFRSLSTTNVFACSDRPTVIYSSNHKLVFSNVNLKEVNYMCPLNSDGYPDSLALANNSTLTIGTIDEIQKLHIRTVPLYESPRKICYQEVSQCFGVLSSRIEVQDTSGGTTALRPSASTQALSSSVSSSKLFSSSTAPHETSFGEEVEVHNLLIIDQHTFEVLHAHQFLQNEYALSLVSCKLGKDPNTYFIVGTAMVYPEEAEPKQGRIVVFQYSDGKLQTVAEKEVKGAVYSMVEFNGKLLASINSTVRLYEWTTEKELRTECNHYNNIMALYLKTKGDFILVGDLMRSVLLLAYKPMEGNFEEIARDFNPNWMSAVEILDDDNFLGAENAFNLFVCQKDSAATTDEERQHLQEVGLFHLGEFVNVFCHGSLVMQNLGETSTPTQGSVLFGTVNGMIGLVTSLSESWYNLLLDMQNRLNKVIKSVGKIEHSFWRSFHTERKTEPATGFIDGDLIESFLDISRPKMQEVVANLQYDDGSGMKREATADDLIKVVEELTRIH
Assay summary: CK1α NanoBit Assay (HiBiT-tagged CSNK1A1, HEK293 clonal lines)
Format: cell-based
Particulars: HEK293 HiBiT-CSNK1A1/LgBiT cells, 24 h incubation
Below, each entry is listed with its recorded DC50.

Record excerpt, results attached:
1. CN(C)C[C@@H]1Cc2ccccc2N1C(=O)Nc1ccc2c(c1)CN(C1CCC(=O)NC1=O)C2=O (some centres unmarked)
0.1 to 1 µM
2. O=C1CCC(N2Cc3cc(NC(=O)N4C[C@@H]5C[C@]5(C(F)F)C4)ccc3C2=O)C(=O)N1 (some centres unmarked)
0.1 to 1 µM
3. Cn1nccc1C1CCCN(C(=O)Nc2ccc3c(c2)CN(C2CCC(=O)NC2=O)C3=O)C1 (centres unmarked)
> 1 µM
4. O=C1CCC(N2Cc3cc(NC(=O)N4CCc5ccc(F)cc5C4)ccc3C2=O)C(=O)N1 (centres unmarked)
< 0.1 µM
5. O=C1CCC(N2Cc3cc(NC(=O)N4CCc5ncccc54)ccc3C2=O)C(=O)N1 (centres unmarked)
0.1 to 1 µM

**Query** Would you kindly share the measured DC50 for O=C1CCC(N2Cc3cc(NC(=O)N4C[C@@H]5[C@H]6CC[C@H](C6)[C@@H]5C4)ccc3C2=O)C(=O)N1 (some centres unmarked) ?
**Result** < 0.1 µM

**Query** Note, next up: O=C1CCC(N2Cc3cc(NC(=O)N4C[C@H](C5CC5)C[C@@H]4C4CC4)ccc3C2=O)C(=O)N1 (some centres unmarked)
**Result** < 0.1 µM

**Query** Thanks! And COC[C@@H]1Cc2c(cccc2C(F)(F)F)N1C(=O)Nc1ccc2c(c1)CN(C1CCC(=O)NC1=O)C2=O (some centres unmarked) ?
**Result** < 0.1 µM

====

Experimental system: CK1α (Homo sapiens)
Construct: HEK293 clonal lines with CRISPR KI HiBiT tag on CSNK1A1
Assay summary: CK1α NanoBit Assay (HiBiT-tagged CSNK1A1, HEK293 clonal lines)
Format: cell-based
Particulars: HEK293 HiBiT-CSNK1A1/LgBiT cells, 24 h incubation
Measured endpoint: DC50

Recorded results for 8 compounds are shown here.
1) CC1(C)Cc2ccccc2N1C(=O)Nc1ccc2c(c1)CN(C1CCC(=O)NC1=O)C2=O (stereo not shown) [Compound 132]
< 0.1 µM
2) O=C1CCC(N2Cc3cc(NC(=O)N4CC(c5cccc(C(F)(F)F)c5)C4)ccc3C2=O)C(=O)N1 (stereo not shown) [Compound 241]
0.1 to 1 µM
3) O=C1CCC(N2Cc3cc(NC(=O)N4c5ccc(C(F)(F)F)cc5CC45COC5)ccc3C2=O)C(=O)N1 (stereo not shown) [Compound 298]
< 0.1 µM
4) O=C1CCC(N2Cc3cc(NC(=O)N4CCc5cc(-n6cccn6)ccc54)ccc3C2=O)C(=O)N1 (stereo not shown) [Compound 355]
< 0.1 µM
5) O=C1CCC(N2Cc3cc(NC(=O)N4CCCCC4C4CC4)ccc3C2=O)C(=O)N1 (stereo not shown) [Compound 232]
0.1 to 1 µM
6) O=C1CC[C@@H](N2Cc3cc(NC(=O)N4c5ccccc5C[C@H]4C(F)(F)F)ccc3C2=O)C(=O)N1 (single isomer, unassigned) [Compound 359]
< 0.1 µM
7) O=C1CCC(N2Cc3cc(NC(=O)N4CCCC5CC54)ccc3C2=O)C(=O)N1 (stereo not shown) [Compound 276]
0.1 to 1 µM
8) O=C1CCC(N2Cc3cc(NC(=O)N4CCC(c5ncccn5)C4)ccc3C2=O)C(=O)N1 (stereo not shown) [Compound 229]
> 1 µM

Note: attention shifts to another entry.
**Query** Checklist item: DC50 tested on CK1α (Homo sapiens), entry O=C1CCC(N2Cc3cc(NC(=O)N4CCN(C56CC(C5)C6)CC4)ccc3C2=O)C(=O)N1 (stereo not shown) [Compound 234] , value?
**Result** > 1 µM

====

Experimental system: CK1α (Homo sapiens)
Construct: HEK293 clonal lines with CRISPR KI HiBiT tag on CSNK1A1
Assay summary: CK1α NanoBit Assay (HiBiT-tagged CSNK1A1, HEK293 clonal lines)
Type: cell-based
Particulars: HEK293 HiBiT-CSNK1A1/LgBiT cells, 24 h incubation
Overview of reported DC50 across a group of compounds:

Reference set (2 entries):
1) O=C1CCC(N2Cc3cc(NC(=O)N4CCc5ccccc5C4)ccc3C2=O)C(=O)N1 (stereo not shown) [Compound 104]
< 0.1 µM
2) Cc1ccc(C2CCCN2C(=O)Nc2ccc3c(c2)CN(C2CCC(=O)NC2=O)C3=O)cn1 (stereo not shown) [Compound 224]
0.1 to 1 µM

**Query** What does the record list as DC50 for Cc1cccc(N2CCN(C(=O)Nc3ccc4c(c3)CN(C3CCC(=O)NC3=O)C4=O)CC2)c1 (stereo not shown) [Compound 265] ?
**Result** 0.1 to 1 µM

**Query** Now try CC1CCc2ccccc2N1C(=O)Nc1ccc2c(c1)CN(C1CCC(=O)NC1=O)C2=O (stereo not shown) [Compound 120] .
**Result** 0.1 to 1 µM

**Query** Item: COC[C@H]1Cc2c(F)cccc2N1C(=O)Nc1ccc2c(c1)CN(C1CCC(=O)NC1=O)C2=O (stereo partly shown) [Compound 303]
**Result** < 0.1 µM

**Query** Now consider C[C@@H]1[C@H]2CN(C(=O)Nc3ccc4c(c3)CN(C3CCC(=O)NC3=O)C4=O)C[C@@H]12 (stereo partly shown) [Compound 273] and answer again.
**Result** < 0.1 µM

**Query** And O=C1CCC(N2Cc3cc(NC(=O)N4c5ccccc5C[C@@H]4CO)ccc3C2=O)C(=O)N1 (stereo partly shown) [Compound 125] ?
**Result** < 0.1 µM

**Query** Cool, now Cc1cccc(C2(O)CN(C(=O)Nc3ccc4c(c3)CN(C3CCC(=O)NC3=O)C4=O)C2)c1 (stereo not shown) [Compound 225]
**Result** > 1 µM

**Query** Consider next the compound O=C1CCC(N2Cc3cc(NC(=O)N4Cc5cccc(Cl)c5C4)ccc3C2=O)C(=O)N1 (stereo not shown) [Compound 182] in the same way.
**Result** < 0.1 µM

**Query** Also Cc1ccccc1N1CCN(C(=O)Nc2ccc3c(c2)CN(C2CCC(=O)NC2=O)C3=O)CC1 (stereo not shown) [Compound 261] , if possible.
**Result** < 0.1 µM
